Tested target: T1, human ST2L extracellular domain with C-terminal His6 tag (human, UniProt Q01638 19-328)
T1 construct: also called huST2L-ECD; ST2L-ECD
T1 sequence: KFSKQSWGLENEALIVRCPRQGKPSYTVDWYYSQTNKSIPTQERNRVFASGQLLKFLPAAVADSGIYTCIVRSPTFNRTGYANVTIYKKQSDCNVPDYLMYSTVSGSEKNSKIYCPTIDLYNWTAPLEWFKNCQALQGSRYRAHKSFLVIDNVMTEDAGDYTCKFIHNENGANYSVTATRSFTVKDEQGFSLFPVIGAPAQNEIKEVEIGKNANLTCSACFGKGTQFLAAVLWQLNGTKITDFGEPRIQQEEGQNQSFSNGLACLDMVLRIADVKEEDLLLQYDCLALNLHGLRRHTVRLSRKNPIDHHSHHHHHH
Procedure details: SPR, mAb captured, ST2L-ECD in solution
The label depends only on koff: label 1 if it is at least 0.0003 s⁻¹, label 0 if it is smaller.

Binder	Class
STLM220 (antibody, V domains shown, frameworks VH3-23 / Vk-L6) VH: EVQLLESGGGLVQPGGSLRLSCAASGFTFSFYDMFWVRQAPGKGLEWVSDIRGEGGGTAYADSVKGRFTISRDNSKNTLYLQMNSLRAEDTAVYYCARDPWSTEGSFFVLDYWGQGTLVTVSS VL: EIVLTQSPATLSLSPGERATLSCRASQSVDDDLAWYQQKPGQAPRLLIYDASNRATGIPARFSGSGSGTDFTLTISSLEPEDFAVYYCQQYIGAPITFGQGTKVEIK	label 0
STLM210 (antibody, V domains shown, frameworks VH3-23 / Vk-L6) VH: EVQLLESGGGLVQPGGSLRLSCAASGFTFSDDAMIWVRQAPGKGLEWVSYIGGNGGTTYYADSVKGRFTISRDNSKNTLYLQMNSLRAEDTAVYYCARDPWSTEGSFFVLDYWGQGTLVTVSS VL: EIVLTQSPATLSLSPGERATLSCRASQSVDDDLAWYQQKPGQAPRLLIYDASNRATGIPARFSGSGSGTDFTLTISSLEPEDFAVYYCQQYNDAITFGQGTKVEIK	label 0
STLM107 (antibody, V domains shown, frameworks VH3-23 / Vk-L6) VH: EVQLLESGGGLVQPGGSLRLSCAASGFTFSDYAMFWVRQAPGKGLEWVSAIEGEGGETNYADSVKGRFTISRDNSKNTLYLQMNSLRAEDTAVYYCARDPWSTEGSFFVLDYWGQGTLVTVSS VL: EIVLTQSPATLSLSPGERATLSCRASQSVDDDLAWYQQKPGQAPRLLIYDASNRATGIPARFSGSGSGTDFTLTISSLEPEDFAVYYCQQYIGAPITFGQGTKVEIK	label 1
STLM211 (antibody, V domains shown, frameworks VH3-23 / Vk-L6) VH: EVQLLESGGGLVQPGGSLRLSCAASGFTFSGYAMIWVRQAPGKGLEWVSYIEGEGGETYYADSVKGRFTISRDNSKNTLYLQMNSLRAEDTAVYYCARDPWSTEGSFFVLDYWGQGTLVTVSS VL: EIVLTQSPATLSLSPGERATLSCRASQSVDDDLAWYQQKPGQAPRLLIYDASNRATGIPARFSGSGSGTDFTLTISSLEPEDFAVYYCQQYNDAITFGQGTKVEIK	label 1
STLM207 (antibody, V domains shown, frameworks VH3-23 / Vk-L6) VH: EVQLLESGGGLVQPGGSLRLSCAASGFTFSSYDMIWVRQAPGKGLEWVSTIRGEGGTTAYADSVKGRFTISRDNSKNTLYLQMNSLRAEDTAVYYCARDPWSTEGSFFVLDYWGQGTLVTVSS VL: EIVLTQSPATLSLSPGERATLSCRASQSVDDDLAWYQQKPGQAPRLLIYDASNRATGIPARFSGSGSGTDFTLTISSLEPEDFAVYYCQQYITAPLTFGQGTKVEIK	label 1
STLM209 (antibody, V domains shown, frameworks VH3-23 / Vk-L6) VH: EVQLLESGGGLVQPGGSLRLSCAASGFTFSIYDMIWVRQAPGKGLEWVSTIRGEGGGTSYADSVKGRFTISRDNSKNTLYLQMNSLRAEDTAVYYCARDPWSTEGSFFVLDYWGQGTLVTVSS VL: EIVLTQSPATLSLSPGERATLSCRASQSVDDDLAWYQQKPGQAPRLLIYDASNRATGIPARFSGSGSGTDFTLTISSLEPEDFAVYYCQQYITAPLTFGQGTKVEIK	label 0
STLM221 (antibody, V domains shown, frameworks VH3-23 / Vk-L6) VH: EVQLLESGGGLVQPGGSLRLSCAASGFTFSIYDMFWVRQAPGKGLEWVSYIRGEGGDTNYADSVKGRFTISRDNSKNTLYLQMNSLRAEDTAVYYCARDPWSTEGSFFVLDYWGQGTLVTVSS VL: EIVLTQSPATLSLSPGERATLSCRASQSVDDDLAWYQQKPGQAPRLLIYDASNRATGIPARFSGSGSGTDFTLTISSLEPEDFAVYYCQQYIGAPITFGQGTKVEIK	label 0
STLM228 (antibody, V domains shown, VH STLH201 + VL STLL276) VH: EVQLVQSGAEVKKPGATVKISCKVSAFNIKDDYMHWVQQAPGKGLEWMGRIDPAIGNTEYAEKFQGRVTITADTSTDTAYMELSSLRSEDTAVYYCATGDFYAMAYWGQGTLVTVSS VL: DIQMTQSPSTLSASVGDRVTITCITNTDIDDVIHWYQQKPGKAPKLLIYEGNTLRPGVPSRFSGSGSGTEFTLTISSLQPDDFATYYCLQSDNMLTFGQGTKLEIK	label 1
STLM231 (antibody, V domains shown, VH STLH201 + VL STLL273; also called S1LM231) VH: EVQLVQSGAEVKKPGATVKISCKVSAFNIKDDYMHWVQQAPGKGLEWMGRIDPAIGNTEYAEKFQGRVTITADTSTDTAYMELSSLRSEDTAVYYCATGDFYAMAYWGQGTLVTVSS VL: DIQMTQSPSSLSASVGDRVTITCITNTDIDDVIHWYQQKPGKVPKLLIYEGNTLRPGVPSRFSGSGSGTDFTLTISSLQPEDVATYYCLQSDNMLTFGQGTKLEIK	label 1
